Value source: patent US20260191981A1

Listing of recorded koff by entry.
- tested_system: T1, his-tagged cTfR1 (Acro Biosystems p/n TFR-C524a) (cynomolgus monkey, UniProt H9EXL1 89-760 (rhesus entry))
- T1 construct: Bought reagent of the SPR assay
- T1 sequence (chain, as listed by the source): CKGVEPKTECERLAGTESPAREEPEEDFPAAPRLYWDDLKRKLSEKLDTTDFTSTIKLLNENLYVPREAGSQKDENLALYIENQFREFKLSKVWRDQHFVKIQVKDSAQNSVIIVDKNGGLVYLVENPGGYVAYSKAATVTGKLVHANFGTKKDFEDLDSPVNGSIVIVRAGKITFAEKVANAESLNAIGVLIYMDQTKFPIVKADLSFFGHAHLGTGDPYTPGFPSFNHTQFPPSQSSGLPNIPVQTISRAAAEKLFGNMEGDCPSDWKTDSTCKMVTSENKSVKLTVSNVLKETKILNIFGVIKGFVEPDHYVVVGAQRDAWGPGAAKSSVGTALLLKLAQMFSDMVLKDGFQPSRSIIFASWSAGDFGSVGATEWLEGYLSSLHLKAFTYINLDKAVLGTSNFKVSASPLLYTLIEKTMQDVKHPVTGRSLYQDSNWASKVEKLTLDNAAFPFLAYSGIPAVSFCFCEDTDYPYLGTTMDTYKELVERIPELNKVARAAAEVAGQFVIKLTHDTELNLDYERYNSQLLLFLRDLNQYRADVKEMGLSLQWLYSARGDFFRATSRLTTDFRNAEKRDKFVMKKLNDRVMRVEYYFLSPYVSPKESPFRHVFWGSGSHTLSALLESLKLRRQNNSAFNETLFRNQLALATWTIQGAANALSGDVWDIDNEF
- method: SPR, Biacore X100, His-tagged TfR1 captured by anti-His
Note: unit s⁻¹ is implicit; provide only the numeric part.

>  <binder>
Fab0064 (Fab, V domains shown) VH: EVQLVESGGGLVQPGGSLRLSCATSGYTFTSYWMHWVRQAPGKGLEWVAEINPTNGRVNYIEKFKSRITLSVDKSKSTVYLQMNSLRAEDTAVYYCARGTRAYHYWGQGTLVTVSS VL: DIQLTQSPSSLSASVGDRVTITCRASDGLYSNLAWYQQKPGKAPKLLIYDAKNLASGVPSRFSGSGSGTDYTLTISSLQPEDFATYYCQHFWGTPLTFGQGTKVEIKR

>  <measure_name>
koff

>  <numeric_value>
0.00367

$$$$

Enquiry: Which koff is listed for Fab0062 (Fab, V domains shown) VH: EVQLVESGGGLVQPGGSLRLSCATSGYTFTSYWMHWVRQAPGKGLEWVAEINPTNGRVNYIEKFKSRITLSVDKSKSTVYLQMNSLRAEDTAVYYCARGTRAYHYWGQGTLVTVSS VL: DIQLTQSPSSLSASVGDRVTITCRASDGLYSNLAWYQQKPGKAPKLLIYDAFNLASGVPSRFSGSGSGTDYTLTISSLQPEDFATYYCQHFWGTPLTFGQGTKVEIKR ?
Return: 0.00515

Enquiry: Again, but for Fab0072 (Fab, V domains shown) VH: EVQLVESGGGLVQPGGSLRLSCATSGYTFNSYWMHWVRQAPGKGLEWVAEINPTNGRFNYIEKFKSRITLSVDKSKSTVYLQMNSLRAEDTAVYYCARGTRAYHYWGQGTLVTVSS VL: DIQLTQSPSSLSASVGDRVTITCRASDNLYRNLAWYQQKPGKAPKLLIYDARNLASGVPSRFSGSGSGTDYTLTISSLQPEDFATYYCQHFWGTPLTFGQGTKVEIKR
Return: 0.0108
